System: SK-MEL-5
experimentNotes: NCI tumour cell line growth inhibition, 48 h
Activity calls are given as the source filed them. Cut-off read from the data, not from the text of the source: active = GI50 up to about 1.1 µM and inactive = higher.
Outcome codes: active, inactive

compound	classAssignment
COC1=CC(=O)c2c(cc3c(c2O)-c2c(OC)cc4cc5c(c(O)c4c2OC(=O)CC(C)(O)C3)C(=O)CC(C)(O)C5)C1=O (configuration not stated)	active
CC(C)(C)OC(=O)N1C(OP(=O)(Oc2ccccc2)Oc2ccccc2)=COc2cccnc21	inactive
Cc1cn(CC2=NCC(C)(C)CN2)c(=O)[nH]c1=O	inactive
C[C@H](C(=O)N1C(=O)O[C@@H](c2ccccc2)[C@H]1C)[C@H](c1ccccc1)N(Cc1ccccc1)OC(=O)c1ccccc1	inactive
COc1cccc(NCC(=O)Nn2c(-c3ccccc3)nc3ccccc3c2=O)c1	inactive
CC(=O)O[C@H]1C(=O)[C@@]2(C)[C@H]([C@H](OC(=O)c3ccc(F)cc3)[C@]3(O)C[C@H](OC(=O)[C@H](O)[C@@H](NC(=O)c4ccccc4)c4ccccc4)C(C)=C1C3(C)C)[C@]1(OC(C)=O)CO[C@@H]1C[C@@H]2O	active
CN1Cc2c(ccc3c2OCO3)[C@@H]2[C@H](O)Cc3cc4c(cc3[C@@H]21)OCO4	inactive
N#C/C(=C/c1cccnc1)C(=O)c1ccccc1	inactive
C=CC1(c2ccc(-c3ccccc3)cc2)OCCO1	inactive
CC(=O)OCC1C(=O)OCC1C(=O)N1Cc2cc3ccccc3nc2C1 (configuration not stated)	inactive
NC(=S)N/N=C/c1ncccc1N [TRIAPINE]	active
CCCCNC(=O)N/C=C1\C(=O)Oc2ccccc2C1=O	inactive
O=[N+]([O-])c1ccc2nc(/C(=N/Nc3ccccc3)C(O)c3ccc(Cl)cc3Cl)c(O)nc2c1 (configuration not stated)	inactive
COc1cc(/C=C2\N=C(c3ccccc3)N(c3cc4cc(Sc5ccccc5)ccc4[nH]3)C2=O)cc(OC)c1OC	inactive
Cc1cccc(CC(Cc2ccc(C)cc2C(=O)O)C(=O)O)c1 (configuration not stated)	inactive
O=C(c1ccccc1)c1c(-c2ccccc2)sc2nc3ccccc3nc12	inactive
CC(C)CC(NC=O)C(=O)NC(Cc1ccccc1)NC(=O)CNC(=O)C(C)NC(=O)C(N)Cc1ccc(O)cc1 (configuration not stated)	inactive
COc1cc(/C=C2\CCC(C)/C(=C\c3cc(OC)c(OC)c(OC)c3)C2=O)cc(OC)c1OC (configuration not stated)	inactive
COC(=O)C(CC(C)C)NC(=O)C(NC(=O)c1ccc(-c2ccc(Cl)cc2Cl)o1)C(C)C (configuration not stated)	inactive
O=C(O)Cn1ncn(NC(=O)Cc2ccccc2)c1=S	inactive
CC1(C)OC[C@H](COCOP2(=O)Oc3ccc4ccccc4c3-c3c(ccc4ccccc34)O2)O1	inactive
CC[S+](C)c1ccc(-c2c3nc(c(-c4ccc([S+](C)CC)cc4)c4ccc([nH]4)c(-c4ccc([S+](C)CC)cc4)c4nc(c(-c5ccc([S+](C)CC)cc5)c5ccc2[nH]5)C=C4)C=C3)cc1.[O-][Cl+3]([O-])([O-])[O-].[O-][Cl+3]([O-])([O-])[O-].[O-][Cl+3]([O-])([O-])[O-].[O-][Cl+3]([O-])([O-])[O-] (configuration not stated)	inactive
Oc1cc2c3c(c1)c1cc4c(cc1c[n+]3CC2)OCO4	inactive
O=C1/C(=N\O)S(=O)(=O)c2ccccc21	inactive
O=C(O)CCCC#CCCCC(=O)O	inactive
CCN(CC)C(=O)CC12CCCCC1=Nc1ccccc12 (configuration not stated)	inactive
CC1CSc2nc3nc(S)nc-3c(O)n2C1 (configuration not stated)	inactive
CC(O)[C@@]1(c2ccccc2)CC2(CCN(C)CC2)O[C@H]1C (some centres not stated)	inactive
O=C(CC1(O)C(=O)Nc2c(Cl)cc(Cl)cc21)c1ccc([N+](=O)[O-])cc1 (configuration not stated)	inactive
COc1c(C)c(C/C=C(\C)CC/C=C(\C)CCC=C(C)C)c(OC)c(OC)c1OC	inactive
CC(=O)c1cc(S(=O)(=O)c2ccc(O)c(C(C)=O)c2)ccc1O	inactive
C=C1C(C2(C)C=CC(=O)OC3(C)COC(=O)CC32)C(OC=O)C(OC(=O)C(O)C(C)CC)C2(C)C(c3ccoc3)CC(OC(C)=O)C12O (configuration not stated)	inactive
CCCCCCCCCCCCCCCCCCOc1ccc(/C=C/C2=[N+](CCCl)CCO2)cc1	inactive
C=CC[C@@]12CCC(=O)C=C1CCCC2=O	inactive
C[n+]1c2ccccc2c2/c(=C\C#N)c3ccccc3n21	inactive
CC1(C)COC2=C(C1)C(=O)c1ccccc1C2=O	active
O=C(CON1C(=O)c2ccccc2C1=O)c1ccccc1	inactive

----------
Tested on: TK-10
experimentNotes: NCI tumour cell line growth inhibition, 48 h
Activity calls are given as the source filed them. No stated cut-off is given here; in the data, active = GI50 up to about 1.1 µM and inactive = higher. Square brackets hold non-standard residues; d marks the D form. Peptide text beside a SMILES is read from it. * marks the point of attachment. Bn2Val = CC(C)[C@@H](C(=O)*)N(Cc1ccccc1)Cc1ccccc1; NH(3,4-diMeO-benzyl) = COc1ccc(CN*)cc1OC; NMeV = CN[C@H](C(=O)O)C(C)C; dNMeA = CN[C@H](C)C(=O)O
Outcome codes: active, inactive

molecule	classAssignment
CN1Cc2c(ccc3c2OCO3)[C@@H]2[C@H](O)Cc3cc4c(cc3[C@@H]21)OCO4	inactive
CCOC(=O)N1C=NC23C(c4ccccc4)C(c4ccccc4)C12C(=O)N(C)C(=O)N3C (stereo not drawn)	inactive
CCNC(=S)/N=c1\sc(NCC)nc2sc3c(c12)CCN(N1CCc2c(sc4nc(NCC)s/c(=N\C(=S)NCC)c24)C1)C3	inactive
CCc1cc(O)c(Cl)c(C)c1Cl	inactive
COC(=O)C1C=CCON2CCc3c(n(C)c4ccccc34)C12 (stereo not drawn)	inactive
Cc1nn2c(=O)c([N+](=O)[O-])c(/C=C/c3ccccc3)nc2s1	inactive
c1ccc(C2(c3ccccc3)S/C(=C3/SC(c4ccccc4)(c4ccccc4)c4ccccc43)c3ccccc32)cc1	inactive
C/C(=N/NC(=S)N1CCCCC1)c1ccccc1O	inactive
CCOC(=O)C(=Cc1cccnc1C)C(=O)OCC	inactive
Cc1ccc2[nH]c(=N/c3ccccc3C)/c(=N\c3ccccc3C)[nH]c2c1	inactive
COC(=O)[C@H]1[C@H]2C[C@@H]3c4[nH]c5cc(OC)ccc5c4CCN3C[C@H]2C[C@@H](OC(=O)c2cc(OC)c(OC)c(OC)c2)[C@@H]1OC [RESERPINE]	inactive
Cc1c2cccc-2ccc2c1[nH]c1ccccc12	inactive
CC(=O)N[C@@H](Cc1ccc(O)cn1)C(=O)NCc1cccc(F)c1	inactive
CC(=O)OCC1OC(n2c3c(c(-c4ccco4)c(C#N)c2=S)CCCC3)C(OC(C)=O)C(OC(C)=O)C1OC(C)=O (stereo not drawn)	inactive
Cc1[nH]n(-c2nc(O)c(-c3ccccc3)c(=O)[nH]2)c(=O)c1CCO	inactive
O=C(CN(c1ccc(S(=O)(=O)O)cc1)c1ccc(S(=O)(=O)O)cc1)Nn1cnc2ccc(S(=O)(=O)N(c3ccc(S(=O)(=O)O)cc3)c3ccc(S(=O)(=O)O)cc3)cc2c1=O	inactive
Oc1ccc(-c2c3ccccc3c(-c3ccc(OCCBr)cc3)c3ccccc23)cc1	inactive
Cc1noc2cccc(OCc3ccccc3)c12	inactive
CC1(C)CCC[C@]2(C)[C@@H]1CC[C@@]13O[C@@H]1C1=C(CO)C(=O)O[C@]14O[C@@H]4[C@@H]23	inactive
CCCCNC(=O)N/C=C1\C(=O)Oc2ccccc2C1=O	inactive
COc1cccc(NC(=O)/C(Cc2nc3ccccc3nc2C)=N/NC(=O)C[n+]2ccccc2)c1	inactive
COc1cc(CCNC2=CC(=O)c3nc[nH]c3C2=O)ccc1O	inactive
O=[N+]([O-])c1ccc(Oc2c(Cl)cc(S(=O)(=O)N/C(=N\O)Nc3ccc(Cl)cc3)cc2Cl)c(Cl)c1	inactive
Cn1ccnc1Cn1cc(-c2cccc(-c3cn[nH]c3)c2)cn1	inactive
N#C/C(=C/c1cccnc1)C(=O)c1ccccc1	inactive
C[C@]12Cc3cnn(-c4ccc(F)cc4)c3NC1CC[C@@H]1C2CC[C@@]2(C)C1CC[C@@H]2O (stereo partly drawn)	inactive
C/C(CC(=O)Nc1ccc(Cl)c(Cl)c1)=N/NC(=O)C[N+](C)(C)C	inactive
COc1ccc(CNC(=O)[C@@H](C)N(C)C(=O)[C@@H]2CCCN2C(=O)[C@H](C(C)C)N(C)C(=O)[C@@H](NC(=O)[C@H](C(C)C)N(Cc2ccccc2)Cc2ccccc2)C(C)C)cc1OC (Bn2Val-V[NMeV]P[dNMeA]-{NH(3,4-diMeO-benzyl)})	inactive
C=C(C)[C@@H]1CC[C@]2(CO)CC[C@]3(C)[C@H](CC[C@@H]4[C@@]5(C)CC[C@H](O)C(C)(C)[C@@H]5CC[C@]43C)[C@@H]12 [BETULIN]	inactive
COc1cc2c(cc1O)CCN[C@@]21CS[C@H]2c3c(OC(C)=O)c(C)c4c(c3C(COC1=O)N1C2C2NC(Cc3cc(C)c(OC)c(O)c32)[C@@H]1O)OCO4 (stereo partly drawn)	active
Cc1ccc(S(=O)(=O)OCC23CCC(CC2)C2CC23)cc1 (stereo not drawn)	inactive
CCOc1cc2c(cc1O)/C(=N/NS(=O)(=O)c1ccc(C)cc1)C[C@@H]1[C@@H]2CC[C@]2(C)[C@@H](O)CC[C@@H]12	inactive
COC1(CC[C@@H](C)COC2OC(CO)C(O)C(O)C2O)O[C@H]2C[C@H]3[C@@H]4CC=C5C[C@@H](OC6OC(CO)C(O)C(OC7OC(CO)C(O)C(O)C7O)C6OC6OC(C)C(O)C(O)C6O)CC[C@]5(C)[C@H]4CC[C@]3(C)[C@H]2[C@@H]1C (stereo partly drawn)	inactive
